Test target: human neutrophil elastase (Homo sapiens, UniProt P08246)
Sequence (P08246 30-267): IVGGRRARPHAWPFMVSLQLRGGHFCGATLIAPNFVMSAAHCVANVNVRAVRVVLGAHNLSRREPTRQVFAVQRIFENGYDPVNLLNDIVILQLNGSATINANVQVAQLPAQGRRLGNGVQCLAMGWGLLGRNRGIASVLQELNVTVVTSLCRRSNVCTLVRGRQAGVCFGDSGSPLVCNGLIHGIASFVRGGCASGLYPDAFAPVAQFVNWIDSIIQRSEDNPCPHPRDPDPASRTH
Assay method text: Affinity (Ki,app) for protease
Type: biochemical
Positions of bridges follow the written chain, without caps; N, C: chain ends. No end group written: not given here.
Attribute measured: Ki

Input: Ki lookup needed for EAMHSFCAFKADDGPCRAAHPRWFFNIFTRQCEEFIYGGCEGNQNRFESLEECKKMCTRD (disulfide 7-57, 16-40, 32-53) [PEP-1] , thanks.
Output: > 20 µM

###

Test target: porcine pancreatic kallikrein (Sus scrofa)
Construct: from tissue; host or cells: pancreas (from the name only)
Sequence (P00752 8-246): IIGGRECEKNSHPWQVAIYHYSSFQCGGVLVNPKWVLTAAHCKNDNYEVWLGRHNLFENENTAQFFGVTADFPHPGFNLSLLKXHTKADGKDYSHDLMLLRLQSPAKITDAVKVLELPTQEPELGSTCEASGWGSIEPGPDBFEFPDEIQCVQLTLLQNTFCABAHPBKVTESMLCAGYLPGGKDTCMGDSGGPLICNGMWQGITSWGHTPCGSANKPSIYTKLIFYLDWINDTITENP
Assay method text: Affinity (Ki,app) for protease
Format: biochemical
Positions of bridges follow the written chain, without caps; N, C: chain ends. No end group written: not given here.
Attribute measured: pKi
Conceptually, pKi converts a concentration in mol/L into minus its log10.

Input: pKi lookup needed for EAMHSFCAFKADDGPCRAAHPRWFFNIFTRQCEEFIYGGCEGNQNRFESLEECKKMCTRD (disulfide 7-57, 16-40, 32-53) [PEP-1] , thanks.
Output: 4.57
